IC50 values by entry
# Assay target: Kinesin-like protein KIF11 (Homo sapiens)
# Sequence (P52732 whole entry, the tested form may be a part): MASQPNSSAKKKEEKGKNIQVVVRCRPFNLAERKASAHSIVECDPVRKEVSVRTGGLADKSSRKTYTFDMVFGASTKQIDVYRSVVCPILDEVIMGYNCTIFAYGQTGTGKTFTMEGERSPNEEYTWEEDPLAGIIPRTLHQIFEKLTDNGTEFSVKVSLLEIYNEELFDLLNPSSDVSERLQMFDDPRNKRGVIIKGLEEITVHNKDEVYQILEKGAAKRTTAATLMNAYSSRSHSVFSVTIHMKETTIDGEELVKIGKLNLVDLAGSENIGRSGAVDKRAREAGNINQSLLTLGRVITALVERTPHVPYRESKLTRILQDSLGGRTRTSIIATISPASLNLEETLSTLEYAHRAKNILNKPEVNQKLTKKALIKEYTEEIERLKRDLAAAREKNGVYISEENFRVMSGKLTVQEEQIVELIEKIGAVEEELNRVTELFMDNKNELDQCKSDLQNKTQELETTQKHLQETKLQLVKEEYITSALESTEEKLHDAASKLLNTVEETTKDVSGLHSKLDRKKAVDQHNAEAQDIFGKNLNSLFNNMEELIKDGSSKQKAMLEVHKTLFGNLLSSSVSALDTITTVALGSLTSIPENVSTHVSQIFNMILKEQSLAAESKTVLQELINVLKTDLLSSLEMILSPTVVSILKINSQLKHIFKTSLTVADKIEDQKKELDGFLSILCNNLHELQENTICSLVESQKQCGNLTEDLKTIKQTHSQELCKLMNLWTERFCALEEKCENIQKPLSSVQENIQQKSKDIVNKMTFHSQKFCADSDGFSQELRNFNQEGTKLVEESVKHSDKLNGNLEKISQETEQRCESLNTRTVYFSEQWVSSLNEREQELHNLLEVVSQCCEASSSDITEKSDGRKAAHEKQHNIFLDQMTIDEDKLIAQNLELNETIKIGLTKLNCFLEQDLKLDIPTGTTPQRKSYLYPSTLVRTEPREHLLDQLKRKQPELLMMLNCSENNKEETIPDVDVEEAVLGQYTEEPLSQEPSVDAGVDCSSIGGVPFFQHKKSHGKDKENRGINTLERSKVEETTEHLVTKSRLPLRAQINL
# Test: Inhibition of His-tagged KSP motor domain (1 to 369) (unknown origin) assessed as inhibition of microtubule-stimulated KSP ATPase activity preincuabted for 30 mins followed by ATP addition measured after 15 mins by Kinase-Glo assay
Express the result in nM but write the number alone.

These solved cases illustrate the format of a correct answer.
Smiles record | IC50 (nM)
N[C@@H](CSC1(c2ccc(Cl)cc2)c2ccccc2C=Cc2ccccc21)C(=O)O | 12
N[C@@H](CSC1(c2ccc(Oc3ccccc3)cc2)c2ccccc2CCc2ccccc21)C(=O)O | 306
N[C@@H](CSC1(c2ccccc2)c2ccccc2CCc2ccccc21)C(=O)O | 209
CON(C)C(=O)N1N=C(c2cc(F)ccc2F)S[C@@]1(CCCN)c1ccccc1 | 18
N[C@@H](CSC1(c2ccc(C(F)(F)F)cc2)c2ccccc2C=Cc2ccccc21)C(=O)O | 36

# lookup: IC50 of N[C@@H](CSC1(c2ccc(C(F)(F)F)cc2)c2ccccc2CCc2ccccc21)C(=O)O 21

# lookup: IC50 of COc1ccc(C2(SC[C@H](N)C(=O)O)c3ccccc3C=Cc3ccccc32)cc1 8.6

# lookup: IC50 of N[C@@H](CSC1(c2ccc(Cl)cc2)c2ccccc2CCc2ccccc21)C(=O)O 11

# lookup: IC50 of N[C@@H](CSC(c1ccccc1)(c1ccccc1)c1ccc(C(F)(F)F)cc1)C(=O)O 262

* * *

# Assay target: Kinesin-like protein KIF11 (Homo sapiens)
# Test: Inhibition of His-tagged KSP motor domain (1 to 369) (unknown origin) assessed as inhibition of microtubule-stimulated KSP ATPase activity preincuabted for 30 mins followed by ATP addition measured after 15 mins by Kinase-Glo assay
Quantity name: IC50 (nM)
Express the result in nM but write the number alone.

These solved cases illustrate the format of a correct answer.
Smiles record | IC50, nM
COc1ccc(C2(SC[C@H](N)C(=O)O)c3ccccc3CCc3ccccc32)cc1 | 14
N[C@@H](CSC1(c2ccc(-c3ccccc3)cc2)c2ccccc2C=Cc2ccccc21)C(=O)O | 1400

Which IC50 is reported with Kinesin-like protein KIF11 (Homo sapiens) for this entry: Cc1ccc(C2(SC[C@H](N)C(=O)O)c3ccccc3C=Cc3ccccc32)cc1 ? 14

* * *

# System: Mus musculus
# Test: Toxicity in athymic nude BALB/cAJcL mouse xenografted with HCT116 cells assessed as body weight loss at 25 mg/kg, iv administered on days 1,3,5,8,10 and 12 relative to vehicle-treated control
# Type: organism-based, HCT-116
# Measurement setup: in vivo

Smiles record | Activity
N[C@@H](CSC1(c2ccc(Cl)cc2)c2ccccc2CCc2ccccc21)C(=O)O | Toxic
N[C@@H](CSC1(c2ccccc2)c2ccccc2CCc2ccccc21)C(=O)O | Toxic
N[C@@H](CSC1(c2ccc(C(F)(F)F)cc2)c2ccccc2CCc2ccccc21)C(=O)O | Toxic
COc1ccc(C2(SC[C@H](N)C(=O)O)c3ccccc3CCc3ccccc32)cc1 | Toxic

* * *

# Assay target: Kinesin-like protein KIF11 (Homo sapiens)
# Test: Inhibition of His-tagged KSP motor domain (1 to 369) (unknown origin) assessed as inhibition of microtubule-stimulated KSP ATPase activity preincuabted for 30 mins followed by ATP addition measured after 15 mins by Kinase-Glo assay
Binarize IC50 at 200 nM; below is Met, at or above is Not met.

Solved cases (4 shown):
Compound | Class name
N[C@@H](CSC1(c2cccc(Cl)c2)c2ccccc2CCc2ccccc21)C(=O)O | Met
N[C@@H](CSC1(c2ccc(-c3ccccc3)cc2)c2ccccc2CCc2ccccc21)C(=O)O | Not met
CC(C)(C)c1ccc(C2(SC[C@H](N)C(=O)O)c3ccccc3CCc3ccccc32)cc1 | Not met
N[C@@H](CSC1(c2cccc(C(F)(F)F)c2)c2ccccc2CCc2ccccc21)C(=O)O | Not met

Consider the compound Cc1ccccc1C1(SC[C@H](N)C(=O)O)c2ccccc2CCc2ccccc21 . Is its IC50 strictly less than 200 nM? Not met

Consider the compound Cc1ccc(C2(SC[C@H](N)C(=O)O)c3ccccc3CCc3ccccc32)cc1 . Is its IC50 strictly less than 200 nM? Met
